# experimental-target: Human CD3εδ-Fc (human) (UniProt P04234)
# Sequence (chain, as listed by the source mutant, chain 1 of 2): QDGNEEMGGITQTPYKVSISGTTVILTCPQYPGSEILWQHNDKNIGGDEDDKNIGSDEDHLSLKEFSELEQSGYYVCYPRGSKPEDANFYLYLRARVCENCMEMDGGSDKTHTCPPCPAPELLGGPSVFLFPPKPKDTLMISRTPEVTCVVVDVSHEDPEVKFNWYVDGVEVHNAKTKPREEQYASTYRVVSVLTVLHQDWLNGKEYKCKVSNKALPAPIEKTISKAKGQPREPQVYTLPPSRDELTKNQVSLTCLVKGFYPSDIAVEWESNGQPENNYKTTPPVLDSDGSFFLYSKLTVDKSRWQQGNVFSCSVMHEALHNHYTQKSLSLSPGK
# Sequence (P04234 22-105, stated change not applied, chain 2 of 2): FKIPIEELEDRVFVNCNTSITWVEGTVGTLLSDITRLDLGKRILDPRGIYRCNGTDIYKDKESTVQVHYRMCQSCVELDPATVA
# assay-name: KD of scFv-Fc or IgG on human CD3εδ-Fc; instrument not given
reported-metric: pKd
Lab note — pKd values are minus log10 of concentrations in M.

The reported value for ADI-46371 (antibody, V domains shown, also called Ab35) VH: QAQLVQSGAEVKKPGASVKVSCKASGFNIKDYYMHWVRQAPGQRPEWIGWIDLENANTVYDAKFQGRVTITRDTSASTAYMELSSLRSEDTAAYYCARDAYGRYFYDVWGQGTLVTVSS VL: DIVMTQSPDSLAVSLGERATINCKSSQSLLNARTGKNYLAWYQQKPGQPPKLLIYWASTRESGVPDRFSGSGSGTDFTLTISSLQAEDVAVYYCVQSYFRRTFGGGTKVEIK in terms of pKd is 9.07

***
The reported value for ADI-45981 (antibody, V domains shown, also called Ab18) VH: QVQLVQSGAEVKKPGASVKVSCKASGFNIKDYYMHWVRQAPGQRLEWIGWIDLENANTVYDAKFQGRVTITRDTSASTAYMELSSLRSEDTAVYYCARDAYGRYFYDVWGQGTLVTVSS VL: DIVMTQSPDSLAVSLGERATINCKSSQSLLNARTGKNYLAWYQQKPGQPPKLLIYWASMRESGVPDRFSGSRSGTDFTLTISSLQAEDVAVYYCSQSYFRRTFGGGTKVEIK in terms of pKd is 10.05
